Where do these numbers come from? They come from patent US6653127B1.

- target-under-test: T1, 5A/5B (P8P8') substrate DTEDVVCC*SMSYTWTG-K
- T1 chain: DTEDVVCCSMYTWTGK
recorded-metric: kcat/Km (M⁻¹ s⁻¹)
Quick note: give the figure in M⁻¹ s⁻¹, leave out the unit.

Value of kcat/Km reported for the protein His-NS4A21-32-GSGS-NS33-181 (protein) MGSSHHHHHHSSGLVPRGSHMGSVVIVGRIILSGSGSITAYSQQTRGLLGCIITSLTGRDKNQVEGEVQVVSTATQSFLATCVNGVCWTVYHGAGSKTLAGPKGPITQMYTNVDQDLVGWQAPPGARSLTPCTCGSSDLYLVTRHADVIPVRRRGDSRGSLLSPRPVSYLKGSSGGPLLCPSGHAVGIFRAAVCTRGVAKAVDFVPVESMETTMRS is 8000
